Source: ChEMBL document CHEMBL3988442

Please provide measured Percent Effect for the entries that follow.
- Organism: Homo sapiens
- protocol_summary: To identify inhibition of the IFN signalling (Jak-Stat) pathway via expression of an eGFP reporter gene under the control of an IFN-stimulated response element (ISRE) containing MxA promoter.
- Format: functional
- Set-up: scale not given: direction of the effect not stated beside the values
- condition_set: 30 µM
Use % as the unit, but write only the number.

Q: Note down Percent Effect recorded for Cc1nc(CN2C(=O)C[C@@H]3[C@@H]2CCN3C(=O)C2CCOCC2)cs1
Ans: -4.21

Q: Note down Percent Effect recorded for CN(C)C(=O)c1ccc2c(c1)N(C)C(CC(=O)NC(C)(C)CO)CO2 (stereo unspecified)
Ans: -2.49

Q: Note down Percent Effect recorded for COc1cccc(C(=O)N2CCc3ncnc(C)c3CC2)c1
Ans: 2.5

Q: Note down Percent Effect recorded for O=C(c1ccccn1)N1C[C@@H]2CC[C@H](C1)N(C(=O)CCc1ccsc1)C2
Ans: 5.27

Q: Note down Percent Effect recorded for Cc1ccc(NC(C)C(=O)NCc2cccs2)cc1C (stereo unspecified)
Ans: 21.3

Q: Note down Percent Effect recorded for Cc1nccn1-c1cc(CNC(=O)CCNC(=O)C2CCCC2)ccn1
Ans: 5.17

Q: Note down Percent Effect recorded for Cc1nn(C)c(N2CCOCC2)c1CNC1CCN(C(C)(C)C)CC1
Ans: 10.5

Q: Note down Percent Effect recorded for Cc1nc(C2CCCN2C(=O)c2ccccc2)ncc1C(N)=O (stereo unspecified)
Ans: 22.3

Q: Note down Percent Effect recorded for O=C(COc1ccc(C(F)(F)F)cc1)NS(=O)(=O)c1cccnc1
Ans: -6.19

Q: Note down Percent Effect recorded for Cc1nn(CC(C)C)c(N(C)C)c1CNCc1cccnc1N(C)C
Ans: 6.14

Q: Note down Percent Effect recorded for Cc1nc(CN2CCCCC2Cn2cncn2)nc2ccccc12 (stereo unspecified)
Ans: 2.22
